Numbers sourced from ChEMBL document CHEMBL4043166.

Tested on: COLO 205
assay.explanation: Cytotoxicity against human COLO205 cells assessed as growth inhibition at 50 uM after 48 hrs by SRB assay relative to control
Format: functional
settings: COLO 205, 48 h, read-out: GI
Let's look at some molecules and their measured inhibition of growth at 50 µM.
Answer in %, number only, no unit symbol.

# annotated cases, reported inhibition of growth at 50 µM shown
COc1ccc2c(c1)C(=O)C(=O)N2CCCCCn1cc(COc2cc(=O)oc3ccccc23)nn1 = 19
O=C1C(=O)N(CCCCn2cc(COc3cc(=O)oc4ccccc34)nn2)c2ccc(F)cc21 = 64
COc1ccc2c(c1)C(=O)C(=O)N2CCn1cc(COc2cc(=O)oc3ccccc23)nn1 = 53
O=C1C(=O)N(CCCCn2cc(COc3cc(=O)oc4ccccc34)nn2)c2ccc([N+](=O)[O-])cc21 = 45
COc1ccc2c(c1)C(=O)C(=O)N2CCCCn1cc(COc2cc(=O)oc3ccccc23)nn1 = 41
O=C1C(=O)N(CCCCCn2cc(COc3cc(=O)oc4ccccc34)nn2)c2ccc(I)cc21 = 30
O=C1C(=O)N(CCCn2cc(COc3cc(=O)oc4ccccc34)nn2)c2ccc([N+](=O)[O-])cc21 = 52
O=C1C(=O)N(CCCn2cc(COc3cc(=O)oc4ccccc34)nn2)c2ccc(I)cc21 = 56
O=C1C(=O)N(CCCCn2cc(COc3cc(=O)oc4ccccc34)nn2)c2ccc(Br)cc21 = 56
O=C1C(=O)N(CCCCn2cc(COc3cc(=O)oc4ccccc34)nn2)c2ccccc21 = 68

# get_value(readout='inhibition of growth at 50 µM', item= O=C1C(=O)N(CCCn2cc(COc3cc(=O)oc4ccccc34)nn2)c2ccc(Br)cc21 )
61
